For each record, write down the corresponding protein stability index.
System: Saccharomyces cerevisiae
Run description: protein stability index of tFT-peptide fusion (C-terminal peptide) (PSI (0-1 scale)); higher = more stable (slower turnover)
Measurement conditions: genetic background: das1 deletion; temperature: 30 C
One number for each entry.

Some sequences with recorded protein stability index:
KAVEFTTTALSS [MKT1 C-terminal 12 aa] ... 0.715
ESIVDFVERHED [IMO32 C-terminal 12 aa] ... 0.714
VVVVPSVVETRK [SSO2 C-terminal 12 aa] ... 0.681

The reported value for ELTKALDLLNSI [VTA1 C-terminal 12 aa] in terms of protein stability index is 0.691

----------
Test system: Saccharomyces cerevisiae
Run description: protein stability index of tFT-peptide fusion (C-terminal peptide) (PSI (0-1 scale)); higher = more stable (slower turnover)
Measurement conditions: genetic background: wild type; temperature: 30 C
Respond with label 1 for protein stability index values of 0.7 and above, label 0 for values below.

Answered cases to consult:
NPDVYKRNYQHK ... label 0
PWRPTNPADRSV ... label 0
ARFCFRIFSFAS ... label 0

Q. Confirm if protein stability index reported for the sequence `TLTVRASLHLEP` is 0.7 or above.
A. label 0

Q. Form field: protein stability index at least 0.7? Entry: `GLYYRGPSKKER`
A. label 1

Q. Identify whether the reported protein stability index of the following sequence is 0.7 or greater: `VPLFLVPGLSAV`
A. label 0

Q. Could you verify whether the entry `FPSCYIWEVEVM` shows protein stability index of no less than 0.7?
A. label 0

Q. Evaluate `GRGEEKRDGGRR` : protein stability index at minimum 0.7?
A. label 0

Q. Does protein stability index meet or surpass 0.7 for `EPMHTLKSIITH` ?
A. label 0

Q. Decide: protein stability index of `PPRPAPPPPPAL` >= 0.7?
A. label 1

----------
Can you tell me protein stability index for the items I'm about to list?
System: Saccharomyces cerevisiae
Run description: protein stability index of tFT-peptide fusion (C-terminal peptide) (PSI (0-1 scale)); higher = more stable (slower turnover)
Measurement conditions: genetic background: wild type; temperature: 37 C

Worked examples, 8 sequences total:
VGIVWELGCWMG ... 0.508
LFFFLVWSLSVF ... 0.0395
SLVLLVASVTGS ... 0.553
FSFSAFARFLVI ... 0.378
NFFLLFFFFLSF ... 0.512
LGPLGWLVLLLV ... 0.354
FFFSLFFVLFFA ... 0.314
YFICLSLVLFSY ... 0.306

Quick batch: protein stability index for everything below.
1. RYKIEKKKLMNN
2. VMWFVLVGLCIL
3. IVVWCGIRYSIR

A.
0.448
0.496
0.459

----------
Test system: Saccharomyces cerevisiae
Run description: protein stability index of tFT-peptide fusion in deletion strain of DAS1 (PSI (0-1 scale)); higher = more stable (slower turnover)
I'd be grateful if you could share measured protein stability index for these entries.

Example sequences with recorded protein stability index:
PSDAASFWRVVG ... 0.702
VRGAVGGWRLLG ... 0.658
FKILRQKMNHQN ... 0.672

Your task in this section: give protein stability index for each listed record.
1. RLIQPLPVQCLN
2. RLIQPLVVQFLN
3. CTSCGYKFPTNN
4. LMVYLSCVACIN
5. KKHKKGQKSKIN
6. RLIVPLPVQFLN
7. KKCKKGQKQKIN
8. RSMRWTFRYWVN

A.
[0.478, 0.587, 0.728, 0.0607, 0.562, 0.607, 0.593, 0.659]
